Test system: Kunming mice
Assay: Influence on hypnosis effect with pentobarbital sodium doses at the threshold (50 mg/kg i.p.)
Type: in vivo
Details: 100 mg/kg intragastric single dose, pentobarbital sodium 50 mg/kg i.p. 60 min later, x ± s, n = 10
Please mark 1 if the recorded time to sleep is equal to or greater than 3 min, and -1 if it falls below.

{"columns": ["COMPOUND", "TARGET_DESC", "CAT"],
 "data": [
  ["COc1cc2c(c(OC)c1OC)OC(c1cc(OC)c(OC)c(OC)c1OC)CC2=O (centres unmarked)", "Kunming mice", 1],
  ["O=c1cc(-c2cc(O)c(Oc3ccccc3)c(CCCCCCCCCCCCCCCCCCCCCl)c2)oc2cc(C#Cc3ccccc3)cc([N+](=O)[O-])c12", "Kunming mice", 1],
  ["CC=Cc1cc(-c2cc(=O)c3c(CCCCC)cc(C(=O)O)cc3o2)cc(C(=O)O)c1C#N", "Kunming mice", 1],
  ["COc1ccc(C2CC(=O)c3c(OC)c(OC)c(OC)c(OC)c3O2)cc1OC (centres unmarked)", "Kunming mice", -1],
  ["COc1ccc(-c2cc(=O)c3c(O)c(OC)c(OC)c(OC)c3o2)cc1OC", "Kunming mice", -1],
  ["COc1cc(OC)c2c(=O)cc(-c3ccc(OC)c(OC)c3)oc2c1 [Example 7, 5,7,3′,4′-tetramethoxyl-flavone]", "Kunming mice", -1],
  ["C=Cc1cc(C(N)=O)cc2oc(-c3ccc(N)c(C4CCSC4)c3)cc(=O)c12 (centres unmarked)", "Kunming mice", 1],
  ["COc1cc(C2Oc3c(cc(OC)c(OC)c3OC)C(=O)C2OC)c(O)c(OC)c1OC (centres unmarked)", "Kunming mice", 1],
  ["COc1ccc(C2CC(=O)c3c(O)cccc3O2)cc1O (centres unmarked)", "Kunming mice", 1]
]}

* * *

Test system: Kunming mice
Assay: Influence on autonomic activity of normal mice (ZIL-2 mice autonomic activity meter, counts within 10 min)
Assay type: in vivo
Settings: intragastric, 50 mg/kg, 2 h after administration, x ± s, n = 10
OBSERVATION_TYPE: Times of activities in 2 h after drug administration/10 min

{"columns": ["COMPOUND", "TARGET_DESC", "RESULT"],
 "data": [
  ["COc1cc(OC)c2c(c1)OC(c1cc(OC)c(OC)c(OC)c1OC)CC2=O (centres unmarked) [Example 66, 5,7,2′,3′,4′,5′-hexa methoxyl-flavanone]", "Kunming mice", "270.7 ± 46.3 /10 min"],
  ["COc1cc(OC)cc(C2CC(=O)c3c(OC)cc(OC)cc3O2)c1 (centres unmarked) [Example 49]", "Kunming mice", "246.6 ± 13.9 /10 min"],
  ["COc1ccc(-c2cc(=O)c3c(OC)c(OC)c(OC)c(OC)c3o2)cc1OC [Example 14, 5,6,7,8,3′,4′-hexamethoxyl-flavone]", "Kunming mice", "183.3 ± 51.3 /10 min"],
  ["CCCc1cc2c(=O)cc(-c3ccc(C(=O)O)c(C(N)=O)c3)oc2c(I)c1CCS(=O)(=O)O [Example 35]", "Kunming mice", "244.8 ± 39.6 /10 min"],
  ["C=Cc1ccc(-c2cc(=O)c3cc(C#N)c(Cc4ccccc4)c(C=CC)c3o2)cc1[N+](=O)[O-] [Example 32]", "Kunming mice", "269.3 ± 50.3 /10 min"],
  ["CCCc1cc(C2CC(=O)c3c(cc(O)cc3[N+](=O)[O-])O2)cc(-c2ccccc2)c1C1CCSC1 (centres unmarked) [Example 51]", "Kunming mice", "130.7 ± 63.2 /10 min"],
  ["C=Cc1cc(C2CC(=O)c3cc(C(N)=O)c(C4CCSC4)c(Oc4ccccc4)c3O2)ccc1N (centres unmarked) [Example 57]", "Kunming mice", "240.8 ± 63.24 /10 min"],
  ["O=C1CC(c2ccc(O)c(O)c2)Oc2cc(O)cc(O)c21 (centres unmarked) [Example 71]", "Kunming mice", "263.0 ± 46.3 /10 min"],
  ["COc1cc(OC)c2c(=O)cc(-c3ccccc3O)oc2c1OC [Example 3, 2′-hydroxyl-5,7,8-trimethoxyl-flavone]", "Kunming mice", "246.3 ± 49.1 /10 min"],
  ["COc1ccc(C2CC(=O)c3c(OC)cc(OC)c(OC)c3O2)cc1OC (centres unmarked) [Example 44, 5,7,8,3′,4′-penta methoxyl-flavanone]", "Kunming mice", "133.5 ± 38.3 /10 min"],
  ["COc1ccc(C2CC(=O)c3c(O)cccc3O2)cc1O (centres unmarked) [Example 62]", "Kunming mice", "242.6 ± 49.2 /10 min"],
  ["N#Cc1cc(-c2cc(=O)c3c(N)cc(F)cc3o2)ccc1O [Example 37]", "Kunming mice", "259.5 ± 46.5 /10 min"],
  ["CC=Cc1cc(C(=O)O)c2c(=O)cc(-c3cc(C#N)c(F)c(C(=O)O)c3)oc2c1 [Example 22]", "Kunming mice", "255.3 ± 41.3 /10 min"],
  ["CC=Cc1cc(C(=O)O)c2c(=O)cc(-c3ccc(C#N)c(C(=O)O)c3)oc2c1 [Example 40]", "Kunming mice", "223.6 ± 43.8 /10 min"]
]}

* * *

Tested on: Kunming mice
Experiment: Influence on hypnosis effect with pentobarbital sodium doses at the threshold (50 mg/kg i.p.)
Assay type: in vivo
Conditions: 50 mg/kg intragastric single dose, pentobarbital sodium 50 mg/kg i.p. 60 min later, x ± s, n = 10
OBSERVATION_TYPE: duration of sleep (min)

{"columns": ["COMPOUND", "NUMERIC_VALUE"],
 "data": [
  ["CC=Cc1c(C(=O)O)cc2c(=O)cc(-c3ccc(F)c(C#N)c3)oc2c1C(=O)O", 44.75],
  ["CCCCCc1cc(-c2cc(=O)c3c(CC)cc(CCCCCCl)cc3o2)cc(O)c1Cc1ccccc1", 37.67],
  ["CCCc1cc(O)cc2c1C(=O)CC(c1ccc(-c3ccccc3)c([N+](=O)[O-])c1)O2 (stereo not shown)", 61.38],
  ["COc1ccc(-c2oc3c(OC)c(OC)c(OC)c(OC)c3c(=O)c2OC)cc1OC", 28.34]
]}

* * *

Reported Times of activities in 2 h after drug administration/10 min is given for each of the following compounds.
Test system: Kunming mice
Experiment: Influence on autonomic activity of normal mice (ZIL-2 mice autonomic activity meter, counts within 10 min)
Assay type: in vivo
Conditions: intragastric, 25 mg/kg, 2 h after administration, x ± s, n = 10
OBSERVATION_TYPE: Times of activities in 2 h after drug administration/10 min

{"columns": ["COMPOUND", "RESULT"],
 "data": [
  ["CC=Cc1cc(Cc2ccccc2)c2c(=O)cc(-c3cc(C#N)c([N+](=O)[O-])c(Cc4ccccc4)c3)oc2c1", "279.9 ± 41.7 /10 min"],
  ["COc1cc(OC)c2c(=O)cc(-c3ccc(OC)c(O)c3)oc2c1 [Example 4, 3′-hydroxyl-5,7,4′-trimethoxyl-flavone]", "250.3 ± 53.9 /10 min"],
  ["CCCCCc1cc(-c2cc(=O)c3c(CC)cc(CCCCCCl)cc3o2)cc(O)c1Cc1ccccc1", "265.0 ± 45.3 /10 min"],
  ["COc1ccc(-c2cc(=O)c3c(OC)c(OC)c(OC)cc3o2)cc1OC", "275.6 ± 44.1 /10 min"],
  ["C=Cc1c(C#N)cc(-c2cc(=O)c3c(C=CC)cc(Cc4ccccc4)cc3o2)cc1[N+](=O)[O-]", "293.6 ± 45.1 /10 min"],
  ["O=c1cc(-c2cc(O)c(Oc3ccccc3)c(CCCCCCCCCCCCCCCCCCCCCl)c2)oc2cc(C#Cc3ccccc3)cc([N+](=O)[O-])c12", "290.6 ± 41.2 /10 min"],
  ["CCc1cccc2c1C(=O)CC(c1cc(F)cc(C(=O)O)c1)O2 (stereo not drawn)", "283.8 ± 73.8 /10 min"],
  ["COc1ccc(-c2cc(=O)c3c(O)c(OC)c(OC)c(OC)c3o2)cc1OC", "237.3 ± 45.3 /10 min"],
  ["C=Cc1cc(-c2cc(=O)c3c(C4CCSC4)cc(C(N)=O)cc3o2)cc(N)c1CC (stereo not drawn)", "280.1 ± 42.7 /10 min"],
  ["CC=Cc1cc(C(=O)O)c2c(=O)cc(-c3cc(C#N)c(F)c(C(=O)O)c3)oc2c1", "291.3 ± 42.0 /10 min"],
  ["COc1ccc(-c2cc(=O)c3c(O)cc(OC)c(OC)c3o2)c(OC)c1OC", "241.1 ± 34.1 /10 min"],
  ["COc1cc(OC)c2c(c1)OC(c1cc(OC)c(OC)c(OC)c1OC)CC2=O (stereo not drawn)", "281.3 ± 31.2 /10 min"],
  ["COc1ccc(C2CC(=O)c3c(OC)cc(OC)c(OC)c3O2)cc1OC (stereo not drawn)", "228.7 ± 43.3 /10 min"],
  ["CC=Cc1cc(I)cc2c1OC(c1cccc(C(=O)O)c1)CC2=O (stereo not drawn)", "238.9 ± 78.3 /10 min"],
  ["COc1cc(OC)cc(C2CC(=O)c3c(OC)cc(OC)cc3O2)c1 (stereo not drawn)", "299.8 ± 94.1 /10 min"]
]}
